B1: KRT18 (parent)
chain: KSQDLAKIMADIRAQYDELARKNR

# Variants of: B1
# protocol summary: protein stability index of a GFP-peptide fusion (GPS, HEK-293T) (PSI 1-6); higher = more stable;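 also: lentivirally expressed fusions sorted by FACS into six bins by GFP to DsRed ratio, PSI derived from sequencing read proportions per bin multiplied by bin number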
# measurement setup: c terminus: a fixed tail appended
parameter: protein stability index
Please give only the number in your answer, with no unit.

protein stability index in this record for `A20R` : 3.09

protein stability index in this record for `K7Q` : 2.43

protein stability index in this record for `A6E` : 2.78

protein stability index in this record for `M9Y` : 3.08

protein stability index in this record for `L19N` : 3.63

protein stability index in this record for `D17H` : 2.67

protein stability index in this record for `A14R` : 2.71

protein stability index in this record for `K1G` : 2.83

protein stability index in this record for `K1D` : 2.05

protein stability index in this record for `A10W` : 2.54

protein stability index in this record for `K7W` : 2.14

protein stability index in this record for `D11Q` : 2.96

protein stability index in this record for `Y16H` : 3.32

protein stability index in this record for `I12A` : 4

protein stability index in this record for `I8N` : 3.86

protein stability index in this record for `L19P` : 2.98

protein stability index in this record for `A14I` : 3.21

protein stability index in this record for `A6C` : 2.66

protein stability index in this record for `S2G` : 2.59

protein stability index in this record for `N23Q` : 2.65

protein stability index in this record for `D4R` : 2.68

protein stability index in this record for `L19D` : 3.75

protein stability index in this record for `R21W` : 2.47

protein stability index in this record for `D17Q` : 2.13

protein stability index in this record for `A10N` : 3.09

protein stability index in this record for `D4P` : 2.68

protein stability index in this record for `I12F` : 3.03

protein stability index in this record for `N23F` : 2.07

protein stability index in this record for `S2I` : 2.11

protein stability index in this record for `K7L` : 2.37

protein stability index in this record for `R13C` : 2.06

protein stability index in this record for `L5K` : 3.75

protein stability index in this record for `R24S` : 2.61
